Target: UniProtKB Q7SZI7
Test: Fluorometric titration (enhancement, quenching)
Assay type: binding
Parameters: cDNAs corresponding to the full-length IRBP, module 1, and module 2 were expressed in pThioHis; modules 3 and 4 were expressed in pTrxFus; made in house; host or cells: E. coli Top10 (pThioHis)
Settings: quenching by 9-AS, ex 280 nm, em 340 nm; read-out: Kd, Quenching
Excerpt: Enhancement of retinol fluorescence and quenching of the intrinsic protein fluorescence were used to monitor binding of all-trans retinol to the recombinant IRBPs. We previously derived an equation that is generally useful for describing such quantum yield changes that are consequent upon ligand binding. This equation has been previously applied to the analysis of binding by monitoring the enhancement of retinol fluorescence. […]
Sequence (Q7SZI7 23-315): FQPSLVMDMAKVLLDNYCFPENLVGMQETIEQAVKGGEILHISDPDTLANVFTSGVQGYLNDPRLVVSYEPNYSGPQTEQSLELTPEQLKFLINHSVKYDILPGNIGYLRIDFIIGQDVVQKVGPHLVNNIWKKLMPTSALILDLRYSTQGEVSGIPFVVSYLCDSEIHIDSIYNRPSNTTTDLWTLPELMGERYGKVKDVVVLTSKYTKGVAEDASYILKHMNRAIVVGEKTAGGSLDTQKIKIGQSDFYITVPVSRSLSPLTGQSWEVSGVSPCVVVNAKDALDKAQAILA
ENDPOINT_NAME: pKd
API: returns pKd as number; meaning -log10 of concentration in mol/L.

Query: Dear colleague, I am looking for the recorded pKd of the following compound: CCCCCCCCCC(CCCCCCCC(=O)O)OC(=O)c1c2ccccc2cc2ccccc12 (stereo not shown)
Reply: 6.38

----------
Biological target: Xenopus IRBP Module 2 (Xenopus laevis, UniProt Q7SZI7)
Construct: cDNAs corresponding to the full-length IRBP, module 1, and module 2 were expressed in pThioHis; modules 3 and 4 were expressed in pTrxFus; made in house; host or cells: E. coli Top10 (pThioHis)
Sequence (Q7SZI7 319-617 limits assumed): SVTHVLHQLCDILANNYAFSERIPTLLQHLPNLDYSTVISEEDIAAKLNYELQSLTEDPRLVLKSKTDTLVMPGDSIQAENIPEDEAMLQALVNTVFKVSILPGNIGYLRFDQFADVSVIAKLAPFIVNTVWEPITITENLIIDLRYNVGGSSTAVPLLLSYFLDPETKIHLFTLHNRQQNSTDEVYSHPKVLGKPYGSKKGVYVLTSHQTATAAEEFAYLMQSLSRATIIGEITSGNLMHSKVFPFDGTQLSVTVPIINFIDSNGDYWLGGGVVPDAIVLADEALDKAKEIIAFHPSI
Assay: Competitive fluorescence titration of all-trans retinol with 11-cis retinaldehyde
Format: binding
Conditions: competition with all-trans retinol; protein 1.10 μM; read-out: Kd 11-cis retinal
ENDPOINT_NAME: pKd
API: returns pKd as number; meaning -log10 of concentration in mol/L.

Query: Dear colleague, I am looking for the recorded pKd of the following compound: CC1=C(/C=C/C(C)=C/C=C/C(C)=C/C=O)C(C)(C)CCC1 [11-cis retinal]
Reply: 6.55

----------
Molecular target: Xenopus IRBP Module 1 (Xenopus laevis)
Assay: Competitive fluorescence titration of all-trans retinol with 11-cis retinaldehyde
Format: binding
Conditions: competition, in presence of 11-cis retinal; protein 0.99 μM; read-out: Kd All-trans retinol
Sequence (Q7SZI7 23-318): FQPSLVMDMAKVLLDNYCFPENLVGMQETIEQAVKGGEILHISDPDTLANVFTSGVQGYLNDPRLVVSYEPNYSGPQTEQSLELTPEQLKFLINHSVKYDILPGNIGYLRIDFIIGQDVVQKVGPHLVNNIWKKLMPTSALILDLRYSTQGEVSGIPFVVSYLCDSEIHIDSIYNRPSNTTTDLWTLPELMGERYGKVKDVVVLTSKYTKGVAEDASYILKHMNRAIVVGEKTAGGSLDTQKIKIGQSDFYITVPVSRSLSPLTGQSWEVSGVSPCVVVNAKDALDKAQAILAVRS
ENDPOINT_NAME: pKd
API: returns pKd as number; meaning -log10 of concentration in mol/L.

Query: API: value(readout=pKd, system=Xenopus IRBP Module 1 (Xenopus laevis)) for record CC1=C(/C=C/C(C)=C/C=C/C(C)=C/CO)C(C)(C)CCC1 [all-trans retinol]
Reply: 6.17

----------
Target: Xenopus IRBP Module 4 (Xenopus laevis)
Construct: cDNAs corresponding to the full-length IRBP, module 1, and module 2 were expressed in pThioHis; modules 3 and 4 were expressed in pTrxFus; made in house; host or cells: E. coli GI724 / GI698 (pTrxFus)
Sequence (Q7SZI7 923-1219): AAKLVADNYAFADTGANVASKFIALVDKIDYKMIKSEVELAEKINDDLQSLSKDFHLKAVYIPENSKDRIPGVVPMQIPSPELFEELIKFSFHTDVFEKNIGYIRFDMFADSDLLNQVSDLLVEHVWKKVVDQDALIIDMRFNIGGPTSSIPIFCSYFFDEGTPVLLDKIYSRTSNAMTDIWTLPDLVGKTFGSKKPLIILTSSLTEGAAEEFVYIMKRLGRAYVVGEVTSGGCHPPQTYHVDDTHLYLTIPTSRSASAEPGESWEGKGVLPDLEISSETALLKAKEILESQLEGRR
Experiment: Competitive fluorescence titration of all-trans retinol with 11-cis retinaldehyde
Assay type: binding
Conditions: competition, in presence of 11-cis retinal; protein 1.00 μM; read-out: Kd All-trans retinol
Description: Figure 9 Competitive inhibition by 11-cis retinaldehyde of all-trans retinol binding to the individual modules of Xenopus IRBP. Binding of all-trans retinol to the individual modules was measured by fluorescence enhancement in the presence of varying amounts of 11-cis retinal. Panels A through D correspond to modules 1 through 4 respectively. […]
ENDPOINT_NAME: Kd
Quote the value and follow it with the unit of measurement.

Query: Dear colleague, I am looking for the recorded Kd of the following compound: CC1=C(/C=C/C(C)=C/C=C/C(C)=C/CO)C(C)(C)CCC1 [all-trans retinol]
Reply: 410 nM
